method description: chemical genetic growth profiling, strain panel (AID 1159580);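 also: tested at 20 µM; growth read once vehicle control cultures reached saturation at 30 °C; 1 = growth at the plate median or of vehicle wells; lower values mean less growth of the strain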
condition set: S. cerevisiae deletion strains, growth OD, locus YNL307C, strain MCK1 (second series), hits give low values
Screen size: about 5,500 compounds; about 2,000 (36%) were called active. Not shown: some 18% with an inconclusive outcome. The list shows a part of the results.
Binary label based on normalized growth with cut-off 0.9: below gives T, not below gives F.

| substance smiles | discrete label |
| --- | --- |
| COC(=O)c1sccc1S(=O)(=O)Nc1cc(C(F)(F)F)cc(C(F)(F)F)c1 | F |
| O=C1C(NCc2ccccc2)=C(NCc2ccccc2)C(=O)c2ccccc21 | T |
| CC(C)(C)c1ccc(-c2cc(NC(=O)c3ccc(Cl)cc3)n[nH]2)cc1 | F |
| O=C1c2ccccc2C(=O)c2sccc21 | T |

====

method description: chemical genetic growth profiling, strain panel (AID 1159580)
condition set: S. cerevisiae deletion strains, growth OD, locus YCL016C, strain dcc1
Screen size: about 5,500 compounds; about 2,000 (36%) were called active. Another 18% or so got no clear call; they are omitted. Cut-off read from the data, not from the text of the source: active = normalized growth mostly below about 0.91 (no sharp cut-off); inconclusive = no clear call, values can overlap the other calls; inactive = mostly above about 0.92. The list shows a part of the results.
Outcome codes: T (active), F (inactive)

| compound | discrete label |
| --- | --- |
| O=c1c(O)c(-c2ccccc2)oc2cccc(O)c12 | T |
| CC(NC(C)(C)C)C(=O)c1cccc(Cl)c1 (configuration not stated) | F |
| CC(=CC1CCC(C)C2C1=C(C)CC2O)C(=O)O (configuration not stated) | F |
| O=C(/C=C/c1ccc(O)cc1)c1ccc(O)cc1O | F |
| O=C(O)c1cc(=O)c2ccccc2[nH]1 | F |
| CC(=O)Nc1c(I)cc(I)c(C(=O)O)c1I | F |
| Cc1cc2nc3c(=O)[nH]c(=O)nc-3n(CC(O)C(O)C(O)CO)c2cc1C (configuration not stated) | F |
| CC(=O)Oc1c(C)c(C)c2c(c1C)CCC(C)(CCCC(C)CCCC(C)CCCC(C)C)O2 (configuration not stated) | F |
| COC1=CC23CCCN2CCc2cc4c(cc2C3C1O)OCO4 (configuration not stated) | F |
| CC(=CC1CCC(C)C2CCC(C)=C12)C(=O)O (configuration not stated) | F |
| CC12CCC(O)CC1CCc1ccccc12 (configuration not stated) | F |
| O=C(Nc1ccc([N+](=O)[O-])cc1Cl)c1cc(Cl)ccc1O | T |

====

method description: chemical genetic growth profiling, strain panel (AID 1159580)
condition set: S. cerevisiae deletion strains, growth OD, locus YPL051W, strain arl3, hits give low values
The whole screen tested about 5,500 compounds, of which about 2,000 (36%) were called active. Another 18% or so got no clear call; they are omitted. The list shows a part of the results.

| molecule | normalized growth |
| --- | --- |
| CCCc1ncc(C[n+]2ccccc2C)c(N)n1 | 0.998 |
| O=C(CCc1ccc(O)cc1)c1c(O)cc(O)cc1O | 0.983 |
| Cc1cc2nc3c(=O)[nH]c(=O)nc-3n(CC(O)C(O)C(O)CO)c2cc1C (stereo unspecified) | 1.01 |
| O=C(/C=C/c1ccccc1)c1ccc(O)cc1O | 0.0614 |
| COC(=O)CC1C(C)(C(=O)c2ccoc2)CC2OCC34C(CC(=O)OC)C5(C)CC36OC3(C)OC1(C(OC(C)=O)C6(OC(C)=O)C5OC(=O)C(C)C)C24O3 (stereo unspecified) | 0.993 |
| COc1ccc(CC(=O)c2ccc(O)cc2O)cc1 | 0.885 |
| CN1CCCCC1c1ccc(-c2cccnc2)nc1 (stereo unspecified) | 1.01 |
| COC(=O)C[C@H]1C(C)(C)[C@@H](OC(C)=O)[C@@H]2CC3=C4CC(=O)O[C@@H](c5ccoc5)[C@]4(C)CCC3[C@@]1(C)C2=O (stereo partly specified) | 1 |
| CC(=O)O[C@@H]1C2CC[C@@H]3C1(C[C@@H](O)[C@@]1(O)[C@@H](C[C@H](O)C1(C)C)[C@]3(C)O)C[C@@]2(C)O (stereo partly specified) | 1.01 |
| COC1=CC23CCCN2CCc2cc4c(cc2C3C1O)OCO4 (stereo unspecified) | 1.02 |
| CNC(C)[C@@H]1CC[C@@H](N)[C@@H](OC2[C@@H](N)C[C@@H](N)[C@H](OC3OC[C@](C)(O)[C@H](NC)[C@H]3O)[C@H]2O)O1 (stereo partly specified) | 0.982 |
| O=c1c(O)c(-c2ccccc2)oc2cccc(O)c12 | 0.696 |
| O=C(O)[C@H]1/C(=C/CO)O[C@@H]2CC(=O)N21 | 0.979 |
| C=C[C@H]1CN2CC[C@H]1C[C@H]2[C@H](O)c1ccnc2ccccc12 | 1 |
| COc1ccc(NS(=O)(=O)c2ccc(N)cc2)nn1 | 0.976 |
| O=C(/C=C/c1ccc(O)cc1)c1ccc(O)cc1O | 0.975 |
| CC(=O)OC[C@@]1(O)C[C@@]23CCC4c5ccoc5CC[C@]4(C)C2CC[C@@H]1C3 (stereo partly specified) | 0.967 |
| CNC(=O)N(C)c1nnc(C(C)(C)C)s1 | 1.01 |
| O=C(O)CC[N+](=O)[O-] | 1.03 |
| CC(=O)OC1CCC23CC1(C)CCC2C(C)(C)CC3OC(C)=O (stereo unspecified) | 0.994 |
| OC[C@H]1O[C@@H](Oc2ccc(O)cc2)[C@H](O)[C@@H](O)[C@@H]1O | 0.989 |

====

method description: chemical genetic growth profiling, strain panel (AID 1159580)
condition set: S. cerevisiae deletion strains, growth OD, locus YLR113W, strain HOG1, hits give low values
The whole screen tested about 5,500 compounds, of which about 2,000 (36%) were called active. Roughly 18% stayed inconclusive and do not appear here. The list shows a part of the results.
API: label(entry) gives fulfilled if the entry's normalized growth is strictly smaller than 1; on equality or larger values it gives not fulfilled.

| substance smiles | discrete label |
| --- | --- |
| Cc1cc2c(s1)Nc1ccccc1N=C2N1CCN(C)CC1 | not fulfilled |
| O=[N+]([O-])c1ccc(NCc2ccc(Cl)c(Cl)c2)nc1 | fulfilled |

====

method description: chemical genetic growth profiling, strain panel (AID 1159580);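 also: tested at 20 µM; growth read once vehicle control cultures reached saturation at 30 °C; 1 = growth at the plate median or of vehicle wells; lower values mean less growth of the strain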
condition set: S. cerevisiae deletion strains, growth OD, locus YLR262C, strain YPT6, hits give low values
The campaign covered roughly 5,500 compounds. About 2,000 (36%) were called active. Not shown: some 18% with an inconclusive outcome. This is one part of the list.
param class (str): category from normalized growth; see ranges bucket 1 = under 0.7, bucket 2 = from 0.7 up to 1, bucket 3 = 1 and over

| substance smiles | discrete label |
| --- | --- |
| COc1ccc(NS(=O)(=O)c2ccc(N)cc2)nn1 | bucket 3 |
| CC(=N/O)/C(C)=C/c1ccc(Cl)cc1 | bucket 1 |
| O=C1c2cccc(O)c2C(=O)c2c(O)cccc21 | bucket 1 |
| C/C(=N/O)c1ccn(S(=O)(=O)c2ccc(Cl)cc2)c1 | bucket 3 |
| O=S(=O)(c1ccc(Cl)cc1)N1CCN(Cc2ccccc2)CC1 | bucket 2 |
| CNC(=O)Oc1ccccc1OC(C)C | bucket 3 |
| CC(=O)Nc1c(I)cc(I)c(C(=O)O)c1I | bucket 2 |
| O=C1C=CC(=O)c2c(O)cccc21 | bucket 2 |
| CCOC(=O)c1c[nH]c2c(F)cccc2c1=O | bucket 3 |
| O=C(O)c1cc(O)c2c(c1)C(=O)c1cc(O)cc(O)c1C2=O | bucket 2 |

====

method description: chemical genetic growth profiling, strain panel (AID 1159580);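 also: tested at 20 µM; growth read once vehicle control cultures reached saturation at 30 °C; 1 = growth at the plate median or of vehicle wells; lower values mean less growth of the strain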
condition set: S. cerevisiae deletion strains, growth OD, locus YIL073C, strain SPO22, hits give low values
Out of some 5,500 compounds screened, about 2,000 (36%) were called active. Roughly 18% stayed inconclusive and do not appear here. Some of the results follow.
We label by threshold. Values of normalized growth strictly beneath 1 are fulfilled. Values of 1 and up are not fulfilled.

| substance smiles | discrete label |
| --- | --- |
| CN1CCN(C2=Nc3cc(Cl)ccc3Nc3ccccc32)CC1 | not fulfilled |
| CNC(=O)N(C)c1nnc(C(C)(C)C)s1 | not fulfilled |
| Cc1cc(O)c2c(c1)C(=O)c1cc(O)cc(O)c1C2=O | fulfilled |
| CC(C)Cn1c(=O)n(C)c(=O)c2[nH]cnc21 | fulfilled |
| C[C@]12CC[C@@H](O)C[C@H]1CCc1ccccc12 | not fulfilled |

====

method description: chemical genetic growth profiling, strain panel (AID 1159580);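 also: tested at 20 µM; growth read once vehicle control cultures reached saturation at 30 °C; 1 = growth at the plate median or of vehicle wells; lower values mean less growth of the strain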
condition set: S. cerevisiae deletion strains, growth OD, locus YJR066W, strain TOR1
Hit rate of the full screen: of about 5,500 compounds, about 2,000 (36%) were called active. About 18% were inconclusive and are not listed. Rule as the data show it: active = normalized growth mostly below about 0.91 (no sharp cut-off); inconclusive = no clear call, values can overlap the other calls; inactive = mostly above about 0.92. This is one part of the list.
Outcome codes: class 1 (active), class 0 (inactive)

| substance smiles | discrete label |
| --- | --- |
| Cn1c(=O)c2c(ncn2C)n(C)c1=O | class 0 |
| CNC(C)(C)Cc1ccccc1 | class 0 |
| O=C(Nc1cc(Cl)cc(Cl)c1)c1cc(Cl)ccc1O | class 0 |
| O=C1c2cccc(O)c2C(=O)c2c(O)cccc21 | class 1 |
| CC(=O)CCCCn1c(=O)c2c(ncn2C)n(C)c1=O | class 0 |
| O=C(Nc1ccc(F)cc1F)c1cc(Cl)ccc1O | class 0 |
| O=C1C=CC(=O)c2c(O)cccc21 | class 0 |
| O=C1c2ccccc2C(=O)c2ccccc21 | class 0 |
| O=C1C=C(O)c2ccccc2C1=O | class 1 |
| O=C1C=CC(=O)c2c(O)c(Cl)c(Cl)c(O)c21 | class 1 |
| O=C1NS(=O)(=O)c2ccccc21 | class 0 |
| CC[C@H]1OC(=O)[C@H](C)[C@@H](O[C@H]2C[C@@](C)(OC)[C@@H](O)[C@H](C)O2)[C@H](C)[C@@H](O[C@@H]2O[C@H](C)C[C@H](N(C)C)[C@H]2O)[C@](C)(O)C[C@@H](C)/C(=N/OCOCCOC)[C@H](C)[C@@H](O)[C@]1(C)O | class 0 |
